system_name: T1, purified human monomeric 4-1BB (human, UniProt Q07011 24-186)
T1 construct: the assay used the 4-1BB part released by Factor Xa with the Fc removed; also called h4-1BB; human 4-1BB
assay_details: SPR, mean n=3;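 further: antibodies captured on anti-human Fc chip, 4-1BB injected as five-point two-fold series from 40 nM by single-cycle kinetics at 25 °C, sensorgrams fitted to 1:1 Langmuir model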
result_type: pKd
Keep in mind that pKd stands for -log10 of concentration in molar terms.

binder	reading
v20022 (antibody, human IgG1, kappa, L234A L235A, V domains shown, Mouse-human chimera; also called 1C8; 1C8 mouse-human parental chimera) VH: QVQLKESGPGLVAPSQSLSITCTVSGFSLTTYAISWVRQPPGKGLEWLGIIWPGGGTNYNSALKSRLSISKDNSRSQVFLKMNSLQTDDTARYYCARGAGTWYFDVWGAGTTVTVSS VL: DIQMTQSTSSLSASVGDRVTISCSASQGISNYLNWYQQKPDGTVKLLIYYTSSLHSGVPSRFSGSGSGTDYSLTISNLEPEDIATYYCQQYSKFPWTFGGGTKLEIKR	6.24

*Q* Recorded pKd for v28702 (antibody, human IgG1, kappa, L234A L235A, V domains shown, also called humanized 5G8 H2L4) VH: QVQLQESGPGLVKPSETLSLTCTVSGFSLISYGVHWVRQPPGKGLEWLGVIWSGGSTDYNPSLKSRVTISKDTSKNQFSLKLSSVTAADTAVYYCARNPLTATVMDYWGQGTLVTVSS VL: DIQMTQSPSSLSASVGDRVTVTCRASQNVGTNVAWYQQKPGKAPKALIYSASYRDSGVPSRFSGSGSGTDFTLTISSVQPEDLATYYCQQYNSYPLTFGGGTKLEIKR , please?
*A* 6.21
